Value source: PubChem BioAssay AID330

# System: P388 leukemia ip, CD2F1 mice, survival T/C
# procedure_summary: NCI In Vivo Anticancer Drug Screen. Data for tumor model P388 Leukemia (intraperitoneal) in CD2F1 (CDF1) mice
# measurement_setup: endpoint: median survival time; dose: 400.0 mg/kg/injection; schedule: Q01DX009 (ip); vehicle: Klucel (hydroxypropylcellulose) (HPC); higher = longer survival
Inconclusive results and toxic doses are left out.
Known T/C of a selection of molecules
recorded_endpoint: T/C

> print(dat)
                  compound.structure.string  recorded.endpoint            result
1           Cc1ccc(S(=O)(=O)N=S(CCO)CCO)cc1                T/C  107 % of control
2        CN(C)c1nc(N)nc(Nc2ccc(Br)cc2)c1N=O                T/C   95 % of control
3    CNC(=S)N/N=C(\C=N\NC(=S)NC)c1ccc(C)cc1                T/C   90 % of control
4  O=[N+]([O-])c1ccc(N/N=C/c2ccnc3ccccc23)cc1                T/C   95 % of control

###

# System: P388 leukemia ip, CD2F1 mice, survival T/C
# procedure_summary: NCI In Vivo Anticancer Drug Screen. Data for tumor model P388 Leukemia (intraperitoneal) in CD2F1 (CDF1) mice
# measurement_setup: endpoint: median survival time; dose: 50.0 mg/kg/injection; schedule: Q04DX003 (ip); vehicle: saline with Tween-80; higher = longer survival
Toxic doses and inconclusive results are not listed.
Known T/C of a selection of molecules
recorded_endpoint: T/C

> print(dat)
                                    molecule                           target.of.assay            result
 1  CC(CC(=O)c1ccccc1)=NCC(O)CN=C(C)CC(=O)c1ccccc1.[Cu] (configuration not stated)  P388 leukemia ip, CD2F1 mice, survival T/C   96 % of control
 2                  CCC(=O)c1ccc(OC(C)=O)cc1  P388 leukemia ip, CD2F1 mice, survival T/C  103 % of control
 3                      Cc1ccc2c(c1)CCCN2C=O  P388 leukemia ip, CD2F1 mice, survival T/C  105 % of control
 4  COC(=O)C(NC(N)=O)SC (configuration not stated)  P388 leukemia ip, CD2F1 mice, survival T/C   96 % of control
 5           O=[N+]([O-])/C=C/c1c(Cl)cccc1Cl  P388 leukemia ip, CD2F1 mice, survival T/C  100 % of control
 6  c1ccc(C2CC(c3ccc(C4=NN(c5ccccc5)C(c5ccccc5)C4)cc3)=NN2c2ccccc2)cc1 (configuration not stated)  P388 leukemia ip, CD2F1 mice, survival T/C   91 % of control
 7  O=C(Nc1ccc2cc(S(=O)(=O)O)ccc2c1)c1ccc(N=Nc2c(S(=O)(=O)O)cc3cc(S(=O)(=O)O)cc(NC(=O)c4ccccc4)c3c2O)cc1  P388 leukemia ip, CD2F1 mice, survival T/C   87 % of control
 8          O=C(CC(=O)C(F)(F)F)c1csc2ccccc12  P388 leukemia ip, CD2F1 mice, survival T/C  109 % of control
 9  O=[N+]([O-])c1ccc(N/N=C(\C(=N/Nc2ccc([N+](=O)[O-])cc2[N+](=O)[O-])c2ccccc2)c2ccccc2)c([N+](=O)[O-])c1  P388 leukemia ip, CD2F1 mice, survival T/C  103 % of control
10              CC(C)CNC1=CC(=O)c2ccccc2C1=O  P388 leukemia ip, CD2F1 mice, survival T/C  106 % of control
11  OCC1OC(n2cnc3c(SCc4ccccn4)ncnc32)C(O)C1O (configuration not stated)  P388 leukemia ip, CD2F1 mice, survival T/C   99 % of control
12  O=c1c2c([nH]c3c1c1[nH]c4c(c(=O)c1c1[nH]c5c(c(=O)c31)CCCC5)CCCC4)CCCC2  P388 leukemia ip, CD2F1 mice, survival T/C   95 % of control
